Reference for the values: PubChem BioAssay (NCI)

- Tested on: HCT-15 colon
- measurement-protocol: NCI-60 one-dose screen, 48 h
- run-parameters: 10 µM unless noted
The panel holds about 83,000 compounds, 20% with a hit somewhere; the sample as a whole holds those more often. The source made the active and inactive calls. How the source made its calls: active means growth percent below 10; inactive means the rest.
Log the outcome using a class from true (active), false (inactive)

Use these answered entries as a reference point.
In [3]: df
Out[3]:
                                   compound  category_label
0  CCOC(=O)C/C(=N\Nc1cc(=O)[nH]c2ccc(OC)cc12)C(=O)OCC           false
1  O=C(C[C@]1(O)C(=O)Nc2ccc(Br)cc21)c1ccco1           false
2  CN(C)C1CN(C(=O)c2cc(-c3ccc4ncnc(N5CCc6cc(F)c(Cl)cc65)c4c3)cnc2N)C1            true
3  CC1(C)N=C(N)N=C(N)N1c1ccc(S(=O)(=O)Nc2nccs2)cc1           false

What did this assay record as the result for O=S(=O)(Nc1cc(Sc2nc3ccccc3s2)c(O)c2ccccc12)c1ccc2ccccc2c1 ?
false

What did this assay record as the result for COc1cc(-c2ccc[nH]2)[nH]c1/C=C1\N=C(C)C(CC(=O)OCC(C)(C)C)=C1C ?
true

What did this assay record as the result for c1cc(OCCN2CCCCC2)ccc1CNc1ccc2nc(CCC3CCCCC3)[nH]c2c1 ?
true

What did this assay record as the result for Cc1ncc(C(=O)Nc2ccc(CN3CCN(C)CC3)c(C(F)(F)F)c2)cc1C#Cc1cnc(N)c2ccc(C#N)cc12 ?
true

What did this assay record as the result for O=C(NC1CCC(Br)CC1)C1CCCC(S(=O)(=O)NC2CCCCC2)C1 (centres undefined) ?
false

What did this assay record as the result for COc1cc(OC)c2c(=O)c3c(CC=C(C)C)cc(OC)c(O)c3oc2c1 ?
false

###

- Test system: HCT-116 colon
- measurement-protocol: NCI-60 one-dose screen, 48 h (100 = growth as untreated, 0 = no growth, -100 = all killed)
- run-parameters: 10 µM unless noted
About 83,000 compounds went through this panel and 20% of them were active in at least one assay; those are over-represented in the sample as a whole. Activity calls are given as the source filed them. The calls were made as follows: active = growth percent below 10; inactive = the rest.
reported-metric: growth

Guide cases for growth, answers given:
>>> print(df.to_string())
                                   compound               val
0  C=C(C)[C@@H]1CC[C@]2(CO)CC[C@]3(C)[C@H](CC[C@@H]4[C@@](C)(CCCN)[C@H](C(=C)C)CC[C@]43C)[C@@H]12   -88.3% (active)
1  Nc1cc(C(=O)O)cc(-n2c(O)c(C=C3N=c4ccccc4=N3)sc2=S)c1  99.4% (inactive)
2  COc1ccc(-c2nc3ccc(C)cc3c3c2c(=O)n(C)c(=O)n3C)cc1OC   105% (inactive)
3  COc1ccc(C2C3=C(COC3=O)N(CCO)c3cc4c(cc32)OCO4)cc1OC (stereo unspecified)  68.6% (inactive)
4  O=C(/C=C/c1cn(-c2ccccc2)nc1-c1ccccc1)CCC(=O)NO    84% (inactive)

Fill in the blank: the reported growth of c1ccc(-c2c(-c3ccccc3)[n+](Cc3ccc4ccccc4c3)cn2Cc2ccc3ccccc3c2)cc1 is ____.
-87.5% (active)

###

- Test system: U251 CNS
- measurement-protocol: NCI-60 one-dose screen, 48 h
- run-parameters: 10 µM unless noted
About 83,000 compounds went through this panel and 20% of them were active in at least one assay; those are over-represented in the sample as a whole. Activity calls are given as the source filed them. The calls were made as follows: active = growth percent below 10; inactive = the rest.
Log the outcome using a class from t (active), f (inactive)

                                   compound  assayed_system  category_label
0  CC(C)C1C2=C(NCCN1C(=O)c1ccncc1)C(C)(C)N(Cc1ccccc1)C2=O (stereo not given)        U251 CNS               f
1     O=C1/C(=C/c2cccc(Br)c2)COc2ccc(O)cc21        U251 CNS               f
2  Cc1nc2sc(C(=O)Nc3cccc(Cl)c3C)c(N)c2cc1C(=O)/C=C/c1ccccc1        U251 CNS               t
3  CN1C(=O)/C(=C/c2ccc(C(=O)Nc3ncc(Cc4cc(Cl)ccc4Cl)s3)cc2)SC1=S        U251 CNS               f
4  CCCCCc1ccc(S(=O)(=O)Nc2ccc3nc(N)oc3c2)cc1        U251 CNS               f
5  Cc1cccc(NC(=O)Cn2cc(CN3CCN(c4ccnc5cc(Cl)ccc45)CC3)nn2)c1        U251 CNS               f

What did this assay record as the result for CCOC(=O)c1ccc[nH]1 ?
f

What did this assay record as the result for C=C1C(=O)O[C@H]2[C@H]1CC/C(COC(=O)NCc1ccc(Cn3c(=O)sn(-c4ccccc4)c3=O)cc1)=C\CC[C@@]1(C)O[C@@H]21 ?
f

What did this assay record as the result for C=CCN=c1sc(-c2ccc3ccccc3c2)cn1NC(=O)c1cc2ccc1CCc1ccc(cc1)CC2 ?
f

What did this assay record as the result for C=C1SC(=Nc2ccccc2Cl)N(C(=O)c2sc3ccccc3c2Cl)C1(C)C ?
f

###

- Test system: U251 CNS
- measurement-protocol: NCI-60 one-dose screen, 48 h (100 = growth as untreated, 0 = no growth, -100 = all killed)
- run-parameters: 10 µM unless noted
- Protocol: Growth inhibition of the U251 human tumor cell line is measured as a screen for anti-cancer activity. Cells are grown in 96 well plates and exposed to the test compound for 48 hours. Compounds are tested at a single concentration, which is 10^-5 M for most compounds. The reported endpoint is percent growth (GI% or GIPRCNT), where numbers from 0 - 100% represent growth inhibition, and numbers from -100% - 0 represent cell death. For example, a value of 40 represents 60% growth inhibition. […]
Compounds without any hit were thinned out: in the full panel of roughly 83,000, 20% have a hit.
reported-metric: growth (%)
Provide the reading as a plain figure in %.

Guide cases for growth, answers given:
molecule	unit-descriptor	val
Nc1cccc(-c2ccc(COc3ccc(CC4SC(=O)NC4=O)cc3)cc2)c1 (stereo not drawn)	%	45.9
COc1cc(/C=N/NC(=O)c2ccc(-n3cc(-c4ccccc4)nn3)cc2)cc(OC)c1OC	%	48.4
CC(=O)N1N=C(c2ccc(Nc3nc(Nc4ccc(F)cc4)nc(Nc4ccc(F)cc4)n3)cc2)CC1c1ccc(N(C)C)cc1 (stereo not drawn)	%	49.8

Fill in the blank: the reported growth of CCN(CC)CCOc1ccc(C(=O)/C=C\c2ccc(Cl)cc2Cl)cc1 is ____.
24.9

Fill in the blank: the reported growth of Cc1ccc(C(=O)c2ccc(CC(=O)N/N=C/c3cccc(O)c3O)n2C)cc1 is ____.
26

Fill in the blank: the reported growth of Cc1cn(C)cn1 is ____.
98

Fill in the blank: the reported growth of O=[N+]([O-])c1ccccc1Nc1ccc2ccccc2c1 is ____.
92.7

Fill in the blank: the reported growth of COC12C=C/C(=C(/C(=O)OCc3csc(SC)n3)C(=O)CCCCCCCCC3(OC)C=C/C(=C(/C(=O)OCc4cnc(SC)s4)C(=O)CCCCCCCC1)O3)O2 (stereo not drawn) is ____.
36.9

Fill in the blank: the reported growth of CNC(=O)NCC1OC(n2cnc3c(NC(=O)Nc4ccccc4)ncnc32)C2OC(=O)CC12 (stereo not drawn) is ____.
96.2

Fill in the blank: the reported growth of O=C(/C=C/c1cn(-c2ccccc2)nc1-c1ccccc1)CCC(=O)NO is ____.
106

Fill in the blank: the reported growth of O=C(O)c1cn(C2CC2)c2cc(N3CCN(C(=O)N4CCOCC4)CC3)c(F)cc2c1=O is ____.
103

Fill in the blank: the reported growth of COC12C=C/C(=C(/C(=O)OCCSc3ccnn3C)C(=O)CCCCCCCCC3(OC)C=C/C(=C(/C(=O)OCCSc4ccnn4C)C(=O)CCCCCCCC1)O3)O2 is ____.
-3.32

Fill in the blank: the reported growth of O=C(Nc1nc(Cl)nc(Nc2ccc(N3CCOCC3=O)cc2)n1)c1ccc(Cl)s1 is ____.
85.4

Fill in the blank: the reported growth of COc1cc2c(cc1OCCCN1CCN(C(=S)SCCC(C#N)(c3ccccc3)c3ccccc3)CC1)N=C[C@@H]1CCCN1C2=O is ____.
-95.7

Fill in the blank: the reported growth of COc1ccc2[nH]cc(-c3nonc3-c3c[nH]c4ccc(Br)cc34)c2c1 is ____.
42.2

Fill in the blank: the reported growth of N[C@@H]1CCC[C@H]1NCCCCN1C(=O)c2cccc3cc([N+](=O)[O-])cc(c23)C1=O is ____.
33.7

Fill in the blank: the reported growth of COc1cc(-c2ccc(-c3ccc(C(=N)N)cc3)s2)cc(OC)c1OC is ____.
26.2

Fill in the blank: the reported growth of CCOC(=O)C#Cc1c(C(=O)OCC)nnn1[C@@H]1O[C@H](COC)[C@@H](OC)[C@H]1OC is ____.
102

Fill in the blank: the reported growth of Oc1c(CN2CCC(N3CCOCC3)CC2)cc(Cc2cc(CN3CCC(N4CCOCC4)CC3)c(O)c3ncccc23)c2cccnc12 is ____.
27.5

Fill in the blank: the reported growth of Nc1c(C(=O)Nc2cccc3ncccc23)sc2nc3c(cc12)CN(Cc1ccccc1)CC3 is ____.
88

Fill in the blank: the reported growth of Cc1ccc(OCCOCCOCCOc2ccc(C)n(O)c2=S)c(=S)n1O is ____.
31.1
